Measured TGI accompanies every entry in the list below.
- System: SNB-19 CNS
- run_description: NCI tumour cell line growth inhibition, 48 h
Where a SMILES comes first, the peptide text is derived from it.

{"columns": ["compound", "target_or_test_system", "value_units", "qualifier_sign", "TGI"],
 "data": [
  ["C/C=C\\C(CC(=O)OC)CC(=O)N(CCC1CN(S(=O)(=O)C(F)(F)F)c2ccccc21)Cc1ccc(OC)cc1OC (stereo not drawn)", "SNB-19 CNS", "µM", ">", 100],
  ["CCC(C)C(NC(=O)C(CC(C)C)NC(=O)CNC(=O)C(NC(=O)C1CCCN1C(=O)C(CC(C)C)NC(=O)C(N)Cc1ccccc1)C(C)CC)C(=O)NC(CC(C)C)C(N)=O (stereo not drawn) (H-FLPIGLIL-NH2; configuration not given here)", "SNB-19 CNS", "µM", ">", 75],
  ["C=C1C(=O)O[C@H]2[C@H]1CC/C(CNC(=O)/C=C/c1ccccc1F)=C\\CC[C@@]1(C)O[C@@H]21", "SNB-19 CNS", "µM", "=", 14.4],
  ["NC(CCCCNCc1ccccc1)C(=O)O (stereo not drawn)", "SNB-19 CNS", "µM", ">", 100],
  ["COc1cc(/C=C/C(=O)c2c(-c3ccc(F)cc3)nc3sc(C)nn23)cc(OC)c1OC", "SNB-19 CNS", "µM", "=", 13.1],
  ["N#Cc1c(-c2ccc(Cl)cc2)c2c([nH]c1=O)-c1cc([N+](=O)[O-])ccc1CCC2", "SNB-19 CNS", "µM", "=", 56.8],
  ["C=CC(=O)Nc1cccc(Oc2nc(Nc3ccc(N4CCN(C)CC4)cc3OC)ncc2Cl)c1", "SNB-19 CNS", "µM", "=", 16.7],
  ["COC(=O)C(=O)C(/C(=N/N)C(=O)Nc1ccccc1C(N)=O)c1nc2ccc([N+](=O)[O-])cc2[nH]c1=O (stereo not drawn)", "SNB-19 CNS", "µM", ">", 100]
]}

---

- Tested on: K-562 leukemia
- run_description: NCI tumour cell line growth inhibition, 48 h

{"columns": ["compound", "TGI"],
 "data": [
  ["Nc1nn(C(=O)Nc2c(F)cccc2F)c2ccccc12", "> 100 µM"],
  ["Cc1ccc(Sc2ccccc2N)cc1", "> 100 µM"],
  ["CC/C=C\\C[C@H](O)C/C=C1/C(=O)C=C[C@@H]1C/C=C\\CCCCO", "> 100 µM"],
  ["NC(=O)CCC(NC(=O)c1c2ccccc2nc2ccccc12)C(=O)O (configuration not stated)", "> 100 µM"],
  ["N#Cc1c(N/N=C\\c2ccc(Cl)cc2)nc(N)nc1N1CCOCC1", "32.3 µM"],
  ["Cc1[nH]nc2ncc(C(=O)N3CCC[C@H]3c3ccc(Cl)cc3)cc12", "> 100 µM"],
  ["Cc1cc(C)nc(NS(=O)(=O)c2ccc(NC(=O)NC(F)(F)F)cc2)n1", "> 100 µM"],
  ["COc1cc(CCC(=O)NC[C@@H](O)c2ccccc2)ccc1O", "> 100 µM"],
  ["C=C1CC2(CCS(=O)(=O)c3ccccc32)OC1=O (configuration not stated)", "34.4 µM"],
  ["NC(=O)Cn1c(=O)oc2cc(C(=O)CN3CCOCC3)ccc21", "> 100 µM"],
  ["CCOC(=O)c1sc2nc1CSc1sc(=S)sc1SCc1nc(sc1C(=O)OCC)-c1nc(c(C(=O)OCC)s1)CSc1sc(=S)sc1SCc1nc-2sc1C(=O)OCC", "> 10 µM"],
  ["O=C(CSSCC(=O)Nc1ccc(Br)cc1)Nc1ccc(Br)cc1", "> 100 µM"],
  ["COc1cc(CNc2cnc3ccc(N)cc3n2)cc(OC)c1OC", "> 100 µM"],
  ["CC(C)OP(=O)(OC(C)C)C(=NCCN=C(NNc1ccccc1[N+](=O)[O-])P(=O)(OC(C)C)OC(C)C)NNc1ccccc1[N+](=O)[O-]", "> 100 µM"],
  ["COc1ccc2c(c1)CCCc1c-2nc2ccccc2c1N", "58.5 µM"],
  ["O=C(Nc1cccc(C(=O)NCCCO)c1)/C(=C/c1ccccc1)NC(=O)c1ccccc1", "> 100 µM"],
  ["O=C(O)Cc1ccc(N=Nc2c(O)c(C(=O)O)cc3ccccc23)cc1", "> 100 µM"],
  ["N=C(N)c1ccc(N=Nc2c(O)ccc3cc4c(N=Nc5ccc(C(=N)N)cc5)c(O)ccc4cc23)cc1", "> 100 µM"],
  ["COc1ccccc1NC(=O)CC(=O)N1N=C(c2ccccc2)C(N=Nc2ccc(Cl)cc2)C1=O (configuration not stated)", "> 100 µM"],
  ["CNC(=O)c1cccc(C#Cc2cncnc2Nc2ccc(OCc3cccc(F)c3)c(Cl)c2)c1", "> 25 µM"],
  ["O=C(O)c1cn(C2CC2)c2cc(N3CCN(Cc4c(O)ccc5ccccc45)CC3)c(F)cc2c1=O", "> 100 µM"],
  ["CCOC(=O)C1SC(=Nc2ccc(Cl)cc2Cl)N=C1C (configuration not stated)", "> 100 µM"],
  ["O=C(CSSCC(=O)OCCS(=O)(=O)Nc1ccc(Br)cc1)OCCS(=O)(=O)Nc1ccc(Br)cc1", "> 100 µM"],
  ["CCC1CCC2c3c([nH]c4ccc(C)cc34)C3C(=O)N(N(C)C)C(=O)C3C2C1 (configuration not stated)", "> 57 µM"],
  ["N#CC1=C(N)Oc2c(sc3c(Br)cccc23)C1c1ccc(Cl)cc1 (configuration not stated)", "3.54 µM"],
  ["O=C1c2c(Cl)c(Cl)c(Cl)c(Cl)c2C(=O)C2(Cl)CC=CCC12Cl (configuration not stated)", "3.59 µM"],
  ["COc1cc(O)c2c(c1)C(=O)C1=C(C2=O)C(O)C[C@@](C)(O)C1 (some centres not stated)", "2.46 µM"],
  ["C=C(Cl)C(C)(Cl)CCC(Cl)C(C)C (configuration not stated)", "> 100 µM"],
  ["COc1cc(CNc2c3ccccc3nc3ccccc23)cc(OC)c1OC", "2 µM"],
  ["COc1ccc(NC(=O)c2ccc(NC3=C(Cl)C(=O)N(Cc4ccccc4)C3=O)cc2)c(OC)c1", "43 µM"],
  ["COc1ccc2c(c1)C(c1cc(OC)c3c(c1)OCO3)C1=C(COC1=O)N2 (configuration not stated)", "> 100 µM"],
  ["CCOC(=O)C12CC(C)=C(C)CC1CCCc1ccccc12 (configuration not stated)", "78.2 µM"],
  ["COP(=O)(OC)[C@H](O)[C@H]1C[C@@H]1c1ccccc1", "> 100 µM"],
  ["O=C1CC(CC(OCc2ccccc2)C(OCc2ccccc2)C(COCc2ccccc2)OCc2ccccc2)CC(=O)N1 (configuration not stated)", "> 100 µM"],
  ["Cn1c2cn[nH]c(=O)c2c2ccc3ccccc3c21", "> 100 µM"],
  ["O=c1cccc2n1CC1CNC[C@H]2C1", "> 100 µM"],
  ["COC(=O)C(c1ccc(OC)cc1)N1C(=O)[C@@H](NC(=O)c2ccccc2)[C@H]1[C@@H](C)O (some centres not stated)", "> 100 µM"],
  ["COc1ccc(N=Nc2c(N)nn(C)c2N)cc1", "> 100 µM"],
  ["Cn1c(=O)ccc2c(=O)c3ccccc3oc21", "> 100 µM"],
  ["CC(C)=NNC(=S)NC12CC3CC(CC(C3)C1)C2", "> 100 µM"],
  ["O=c1[nH]nc(Cc2ccccc2)n1/N=C/c1ccc([N+](=O)[O-])cc1", "> 100 µM"],
  ["O=C(O)CCN(CCCN(CCC(=O)O)CCC(=O)O)CCC(=O)O", "> 100 µM"]
]}
